Measured values drawn from patent US9260382B2 for this set.

We begin with a simple list: items and their reported Actual readings of flow cytometry (exoS expression).
# Test system: exoS promoter (T3SS)
# experiment summary: exoS promoter-gfp reporter pATexoS, flow cytometry
# Format: cell-based, P. aeruginosa PA01
# condition summary: 50 uM, 6 h, LB with 200 mM NaCl, 10 mM NTA
Kindly provide the number alone.

Here are 4 compounds together with their reported answers.
O=C(/C=C/c1ccc(O)cc1)NO [Compound 103, trans-4-Hydroxycinnamohydroxamic acid]: 237.31
COC(=O)/C=C/c1ccc(O)cc1 [Compound 101, Methyl para-coumate]: 106.83
Nc1ccc(/C=C/C(=O)O)cc1 [Compound 027, trans-4-Aminocinnamic acid]: 97.23
O=C(NO)c1ccccc1 [Compound 134, Benzhydroxamic acid]: 199.21

Next item in the queue.
Asked: Lab note: need Actual readings of flow cytometry (exoS expression) for O=C(O)/C=C/c1ccc(O)cc1 [Compound 004, para-coumaric acid] on exoS promoter (T3SS), anyone have it?
Given back: 127.05

* * *

# Test system: exoS promoter (T3SS)
# experiment summary: exoS promoter-gfp reporter pATexoS, flow cytometry
# Assay type: cell-based, P. aeruginosa PA01
# condition summary: 20 uM, 6 h, LB with 200 mM NaCl, 10 mM NTA
We begin with a simple list: items and their reported Actual readings of flow cytometry (exoS expression).
Kindly provide the number alone.

Here are 2 compounds together with their reported answers.
Nc1ccc(/C=C/C(=O)O)cc1 [Compound 027, trans-4-Aminocinnamic acid]: 102.07
O=C(O)/C=C/c1ccc(O)cc1: 119.08

Asked: # get_value(readout='Actual readings of flow cytometry (exoS expression)', item= COC(=O)/C=C/c1ccc(O)cc1 [Compound 101, Methyl para-coumate] )
Given back: 122.82

Asked: # get_value(readout='Actual readings of flow cytometry (exoS expression)', item= O=C(/C=C/c1ccc(O)cc1)NO [Compound 103, trans-4-Hydroxycinnamohydroxamic acid] )
Given back: 179.07

Asked: # get_value(readout='Actual readings of flow cytometry (exoS expression)', item= O=C(NO)c1ccccc1 [Compound 134, Benzhydroxamic acid] )
Given back: 157.22

* * *

# Test system: exoS promoter (T3SS)
# experiment summary: exoS promoter-gfp reporter pATexoS, flow cytometry
# Format: cell-based, P. aeruginosa PA01
# condition summary: structure-activity table; concentration not given
parameter measured: Fraction of untreated control (exoS expression)
Kindly provide the number alone.

COC(=O)/C=C/c1ccc(O)cc1 [Compound 101, Methyl para-coumate]: 0.65
O=C(O)/C=C/c1ccc(O)cc1: 0.94
CNC(=O)/C=C/c1ccc(O)cc1 [Compound 137, N-Methyl-4-hydroxycinnamamide]: 0.92
O=C(/C=C/c1ccccc1)NO [Compound 132, trans-Cinnamohydroxamic acid]: 1.53
O=C(/C=C/c1ccc(O)cc1)NO [Compound 103, trans-4-Hydroxycinnamohydroxamic acid]: 2.04

Next item in the queue.
Asked: # get_value(readout='Fraction of untreated control (exoS expression)', item= Nc1ccc(/C=C/C(=O)O)cc1 [Compound 027, trans-4-Aminocinnamic acid] )
Given back: 0.66

* * *

# Tested on: hrpA promoter (T3SS)
# experiment summary: GFP reporter plasmid phrpA, flow cytometry (FACS) of hrpA promoter activity
# Assay type: cell-based, Dickeya dadantii 3937
# condition summary: Trial 2, MM supplemented with compound at 100 μM
parameter measured: Mean Fluorescence Intensity of GFP (hrpA, phrpA)
Kindly provide the number alone.

Here are 4 compounds together with their reported answers.
O=C(O)/C=C/c1ccc(O)cc1: 9.3
O=C(/C=C/c1c[nH]c2ccccc12)NO [Compound 127, trans-3-Indoleacrylohydroxamic acid]: 26.2
COc1ccc(/C=C/CO)cc1 [Compound 126, trans-4-Methoxycinnamyl alcohol]: 9.5
O=C1c2ccccc2C(=O)N1C/C=C/c1ccc(O)cc1 [Compound 116, N-(para-Coumaryl)phthalimide]: 27.0

Next item in the queue.
Asked: # get_value(readout='Mean Fluorescence Intensity of GFP (hrpA, phrpA)', item= COc1ccc(/C=C/C(=O)NO)cc1 [Compound 125, trans-4-Methoxycinnamohydroxamic acid] )
Given back: 25.9
